# Study Target: Acetylcholinesterase (Electrophorus electricus, UniProt O42275)
# Sequence (O42275 whole entry): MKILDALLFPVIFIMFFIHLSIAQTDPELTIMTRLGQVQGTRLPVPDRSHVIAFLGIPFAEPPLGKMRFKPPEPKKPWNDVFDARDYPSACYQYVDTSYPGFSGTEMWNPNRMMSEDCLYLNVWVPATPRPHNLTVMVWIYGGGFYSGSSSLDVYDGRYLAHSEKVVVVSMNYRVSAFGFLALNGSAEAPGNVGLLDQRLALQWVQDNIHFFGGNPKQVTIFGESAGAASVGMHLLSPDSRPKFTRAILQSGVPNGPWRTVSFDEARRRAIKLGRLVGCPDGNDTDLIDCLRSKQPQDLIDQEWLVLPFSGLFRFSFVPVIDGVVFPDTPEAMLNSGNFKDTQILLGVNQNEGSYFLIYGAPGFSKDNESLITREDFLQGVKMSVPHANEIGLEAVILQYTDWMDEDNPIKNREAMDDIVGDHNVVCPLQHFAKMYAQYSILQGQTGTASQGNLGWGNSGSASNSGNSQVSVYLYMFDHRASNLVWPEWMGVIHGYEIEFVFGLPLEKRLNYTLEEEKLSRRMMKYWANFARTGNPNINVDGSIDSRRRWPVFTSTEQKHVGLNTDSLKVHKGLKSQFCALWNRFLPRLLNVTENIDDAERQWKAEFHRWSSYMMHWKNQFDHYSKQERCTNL
# Assay: Inhibition of Electrophorus electricus AChE by Ellman's method
Form field: pIC50 (one value per entry).
Just so you know, pIC50 here is -log10 of the concentration in molar units; reply with that number alone.

// returns reported pIC50 for input CC(=O)OC[C@H]1O[C@@H](Oc2ccc(/C=N/NC(N)=O)cc2)[C@H](OC(C)=O)[C@@H](OC(C)=O)[C@@H]1OC(C)=O 3.85

Looking for the measured pIC50 of NC(=O)N/N=C/c1ccc(O[C@@H]2OC[C@@H](OC(=O)c3ccccc3)[C@@H](OC(=O)c3ccccc3)[C@H]2OC(=O)c2ccccc2)cc1 , can you help? 5.15

Return reported pIC50; argument: NC(=O)N/N=C/c1ccc(O[C@@H]2O[C@H](CO)[C@@H](O)[C@H](O)[C@H]2O)cc1 3.92

Which value of pIC50 has been reported for O=Cc1ccc(O[C@@H]2OC[C@@H](OC(=O)c3ccccc3)[C@H](OC(=O)c3ccccc3)[C@H]2OC(=O)c2ccccc2)cc1 in the records? 4.46

These data points were gathered from ChEMBL document CHEMBL1149785.
